Cited source for all entries: patent US6670144B1

target: UniProt:P15273
Sequence (P15273 whole entry): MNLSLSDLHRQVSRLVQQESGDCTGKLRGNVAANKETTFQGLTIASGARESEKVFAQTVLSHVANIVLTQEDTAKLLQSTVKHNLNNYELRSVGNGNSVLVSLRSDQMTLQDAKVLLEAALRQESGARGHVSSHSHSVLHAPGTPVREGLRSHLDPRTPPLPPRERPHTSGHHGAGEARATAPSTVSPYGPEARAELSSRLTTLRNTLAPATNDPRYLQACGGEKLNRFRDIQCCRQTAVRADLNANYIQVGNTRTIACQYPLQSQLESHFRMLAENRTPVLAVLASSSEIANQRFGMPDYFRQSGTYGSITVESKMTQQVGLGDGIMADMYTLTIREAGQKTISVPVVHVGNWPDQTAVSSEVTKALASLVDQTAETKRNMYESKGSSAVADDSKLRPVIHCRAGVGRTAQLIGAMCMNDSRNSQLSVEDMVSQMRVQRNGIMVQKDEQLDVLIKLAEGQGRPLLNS
quantityName: IC50 (nM)
Answers are plain numbers, in nM.

Prompt: GET /values?readout=IC50&item= [Na+].[Na+].[Na+].[O]=[V]([O-])([O-])[O-] [vanadate, Sodium orthovanadate]
Completion: 250
